# System: human leukocyte elastase (HLE) (Homo sapiens, UniProt P08246)
# Sequence (P08246 30-267): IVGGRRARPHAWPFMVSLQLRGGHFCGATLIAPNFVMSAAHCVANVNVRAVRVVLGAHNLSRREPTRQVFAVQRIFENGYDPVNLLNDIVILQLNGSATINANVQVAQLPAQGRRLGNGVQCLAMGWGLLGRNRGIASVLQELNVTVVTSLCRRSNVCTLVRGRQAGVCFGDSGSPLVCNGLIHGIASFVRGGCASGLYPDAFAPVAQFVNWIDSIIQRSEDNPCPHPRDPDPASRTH
# Test protocol: Inhibition of human leukocyte elastase: rate of inactivation kon and inhibition constant Ki* (koff/kon)
# Format: biochemical
# Condition description: Ki* = koff/kon, calculated from measured koff and kon; not a truly reversible Ki; read-out: K*i
The following molecules are shown together with reported pKi values.
By convention, pKi is the negative base-10 log of a molar concentration.

INSERT INTO assay_data (molecule, reported_property, measured_value) VALUES
  ('CC(C)c1cccc2c1C(=O)N(COC(=O)c1c(Cl)ccc(O)c1Cl)S2(=O)=O [Example 2A]', 'pKi', 10.40);

[Q] Look up and state reported pKi for CC(C)c1cccc2c1C(=O)N(COC(=O)c1c3ccccc3cc3ccccc13)S2(=O)=O [Example 1L]
[A] 9.52

[Q] Specify pKi for CC(C)c1cccc2c1C(=O)N(COC(=O)c1c(Cl)ccc(S(=O)(=O)N3CCN(C)CC3)c1Cl)S2(=O)=O [Example 1V] and stop.
[A] 11.15

[Q] Name the recorded pKi of the item CC(C)c1cccc2c1C(=O)N(COC(=O)c1c(Cl)ccc(OCCN(C)C)c1Cl)S2(=O)=O [Example 1AE] in your answer.
[A] 11.05

[Q] Specify pKi for COc1cc(C(C)C)c2c(c1OC)S(=O)(=O)N(COC(=O)c1c(Cl)cccc1Cl)C2=O [Example 1BF] and stop.
[A] 8.70

[Q] Give the value of pKi reported for the following: CC(C)c1cccc2c1C(=O)N(COC(=O)c1c(Cl)ccc(S(=O)(=O)N(C)CCCN(C)C)c1Cl)S2(=O)=O [Example 1AF]
[A] 11.00

[Q] Note pKi for the molecule shown: COc1cc(C(C)C)c2c(c1)S(=O)(=O)N(COC(=O)c1c(C)cccc1C)C2=O [Example 1BM]
[A] 10.10

[Q] Write down pKi measured for item CCCc1c(OC)c(OC)cc2c1C(=O)N(COC(=O)c1c(Cl)cccc1Cl)S2(=O)=O [Example 1BA]
[A] 10.11
